A collection of molecules and their measured IC50
- assayed_target: CTX-M15 β-lactamase (Escherichia coli)
- Construct: expressed as native untagged proteins; made in house; host or cells: E. coli BL21(DE3)
- Sequence (Q9EXV5 entry or part of it): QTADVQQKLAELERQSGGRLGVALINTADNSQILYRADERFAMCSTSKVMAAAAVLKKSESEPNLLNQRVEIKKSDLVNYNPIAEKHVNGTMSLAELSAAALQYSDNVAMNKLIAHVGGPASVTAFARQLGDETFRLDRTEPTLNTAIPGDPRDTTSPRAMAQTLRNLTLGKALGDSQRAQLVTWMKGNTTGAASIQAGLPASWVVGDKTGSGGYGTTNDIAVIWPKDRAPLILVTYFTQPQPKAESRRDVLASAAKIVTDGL
- protocol_summary: β-lactamase enzyme inhibition assay (nitrocefin substrate), CTXM-15
- Format: biochemical
Where a name gives a salt, the structure may show the parent alone.
assay_readout: IC50 (nM)

[[record]]
molecule = "O=C(N[C@@H](Cc1cccc(C(=O)O)c1O)B(O)O)c1ccc(CN2CCNCC2)cc1 [Example 5, Hydrochloride]"
assayed_target = "CTX-M15 β-lactamase (Escherichia coli)"
assay_readout = "IC50"
unit_info = "nM"
observed_measurement = 6

[[record]]
molecule = "CCNCc1ccc(C(=O)N[C@@H](Cc2cccc(C(=O)O)c2O)B(O)O)cc1.Cl [Example 6, Hydrochloride]"
assayed_target = "CTX-M15 β-lactamase (Escherichia coli)"
assay_readout = "IC50"
unit_info = "nM"
observed_measurement = 4

[[record]]
molecule = "O=C(Cc1ccc(CNCCO)cc1)N[C@@H](Cc1cccc(C(=O)O)c1O)B(O)O"
assayed_target = "CTX-M15 β-lactamase (Escherichia coli)"
assay_readout = "IC50"
unit_info = "nM"
observed_measurement = 7


Every entry's value here was drawn from patent US20100292185A1.
